# Test system: Escherichia coli TOP10
# method: shrunken log2 fold change of peptide-encoding DNA abundance (4.5 h post-induction vs induction); higher = less antimicrobial activity (less host growth inhibition)
# measurement setup: time post-induction: 4.5 h; library: site-saturation at positions 5, 18, 19, 20
Assign class by shrunken log2 fold change: not lower than -0.2 means 1.0; lower than -0.2 means 0.0.

Input: Can RRIRPRPPRLPRPRPRPCKLPRP be said to have shrunken log2 fold change at or above -0.2?
Output: 0.0

Input: Identify whether the reported shrunken log2 fold change of the following sequence is -0.2 or greater: RRIRKRPPRLPRPRPRPYSQPRP
Output: 1.0

Input: Can RRIRERPPRLPRPRPRPYECPRP be said to have shrunken log2 fold change at or above -0.2?
Output: 1.0

New cases:
Input: Does the sequence RRIRFRPPRLPRPRPRPNRFPRP have recorded shrunken log2 fold change that is -0.2 or more?
Output: 1.0

Input: Does RRIRWRPPRLPRPRPRPYWIPRP have a reported shrunken log2 fold change of at least -0.2?
Output: 0.0

Input: hey, is shrunken log2 fold change for this one >= -0.2? RRIRRRPPRLPRPRPRPMRQPRP
Output: 1.0

Input: For this sequence, is measured shrunken log2 fold change -0.2 or higher? RRIRRRPPRLPRPRPRPLEHPRP
Output: 1.0

Input: For this sequence, is measured shrunken log2 fold change -0.2 or higher? RRIRFRPPRLPRPRPRPSNCPRP
Output: 0.0

---

# Tested on: Escherichia coli TOP10;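 further: peptides expressed intracellularly from a pBAD plasmid library in pooled LB shake-flask culture, induced with 0.3% L-arabinose, DNA abundance read by NGS, three biological replicates, DESeq2 with apeglm shrinkage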
# method: shrunken log2 fold change of peptide-encoding DNA abundance (4.5 h post-induction vs induction); higher = less antimicrobial activity (less host growth inhibition)
# measurement setup: time post-induction: 4.5 h; library: site-saturation at positions 5, 18, 19, 20
Entry flag: Fulfilled if shrunken log2 fold change reaches -0.04; Not fulfilled if it does not.

Input: Would you say RRIRQRPPRLPRPRPRPEYHPRP shows shrunken log2 fold change at minimum -0.04?
Output: Not fulfilled

Input: Is shrunken log2 fold change for RRIRTRPPRLPRPRPRPIGPPRP at or above -0.04?
Output: Fulfilled

Input: Does the sequence RRIRWRPPRLPRPRPRPPFMPRP have recorded shrunken log2 fold change that is -0.04 or more?
Output: Fulfilled

Input: Would you say RRIRWRPPRLPRPRPRPDRHPRP shows shrunken log2 fold change at minimum -0.04?
Output: Not fulfilled

Input: Item RRIRVRPPRLPRPRPRPSKPPRP with shrunken log2 fold change of -0.04 or above?
Output: Not fulfilled

Input: hey, is shrunken log2 fold change for this one >= -0.04? RRIRARPPRLPRPRPRPMQMPRP
Output: Fulfilled

Input: Test whether the sequence RRIRGRPPRLPRPRPRPTSNPRP records shrunken log2 fold change of -0.04 or higher.
Output: Fulfilled

Input: Threshold query (shrunken log2 fold change >= -0.04) on RRIRIRPPRLPRPRPRPPSHPRP
Output: Not fulfilled

Next:
Input: Please indicate if the recorded shrunken log2 fold change for RRIRCRPPRLPRPRPRPDAFPRP meets or exceeds -0.04.
Output: Fulfilled

Input: Evaluate RRIRVRPPRLPRPRPRPFIWPRP : shrunken log2 fold change at minimum -0.04?
Output: Not fulfilled

Input: Does the reported shrunken log2 fold change for RRIRERPPRLPRPRPRPGIPPRP fall at or above the -0.04 mark?
Output: Not fulfilled
